measure.name: melting point

compound	result
CC(C)(C)OC(=O)N1CCC(C(=O)O)(n2cccn2)CC1	159 to 161 °C
O=C(O)c1cnoc1-c1ccccc1	149 to 151 °C
COc1ccc(C(N)CC(=O)O)cc1 (stereo not drawn)	237 to 239 °C
CC(NC(=O)c1ccco1)C(=O)O (stereo not drawn)	100 to 102 °C
Nc1ccc(NC(=O)c2ccccc2F)cc1C(F)(F)F	124 to 126 °C
CCc1c(O)nc(S)n(-c2ccccc2C)c1=O	178 to 180 °C
Sc1nnnn1C1CC1	127 to 129 °C
O=C(O)C12CC3CC(C1)CC(C(F)(F)F)(C3)C2	138 to 140 °C

* * *

melting point overview

molecule	melting point
O=C(O)CC1CCc2ccccc2C1 (stereo not given)	80 to 82 °C
CC(=O)c1ccc(S(N)(=O)=O)cc1	178 to 180 °C
Brc1ccc(NCc2cccs2)cc1	49 to 51 °C
Cc1ccc(Oc2ccc(Cl)cc2NC(=O)CCl)cc1	87 to 89 °C
COc1cc(C(=O)O)cc(OC)c1OC(F)F	179 to 181 °C

* * *

melting point overview
measure.name: melting point

compound	result
CN(C)Cc1c(O)ccc2ccccc12	73 to 75 °C
O=C(Cc1ccccn1)c1ccc(Br)cc1	126 to 128 °C
CCCN1Cc2ccc(N)cc2C1	48 to 50 °C
Fc1cccc(-c2noc(S)n2)c1	93 to 95 °C
CCOC(=O)Cc1c(C)nc(O)nc1C	135 to 137 °C
COc1ccc([N+](=O)[O-])cc1C#N	69 to 71 °C
Cc1cc(N)nn1C	49 to 51 °C
CC(C)n1ncc2ccc(N)cc21	144 to 146 °C
Nc1cccc(-n2ccnn2)c1	118 to 120 °C
Cc1cc(-c2nnc(CCl)o2)c(C)o1	62 to 64 °C
O=C(O)c1cccc(NS(=O)(=O)c2ccc3ccccc3c2)c1	205 to 207 °C
O=C1NC(=O)N(C2CCCCC2)C1=O	187 to 189 °C
Nc1nonc1C(=O)O	214 to 216 °C
CC(C)n1nc(C(=O)O)c2ccccc2c1=O	142 to 144 °C
CCc1nc2sccc2c(=O)[nH]1	199 to 201 °C
NC(=O)CCCOc1ccc(F)cc1	125 to 127 °C
CCOC(=O)CO/N=C(\C(=O)O)c1cc[nH]n1	128 to 130 °C
CCn1c(S)nnc1-c1ccncc1	140 to 142 °C
O=[N+]([O-])c1cccc2c1CCCN2	79 to 81 °C
O=C(O)c1ncoc1-c1cccc(F)c1	169 to 171 °C
Cc1nn(Cc2ccccc2)c(C)c1C(=O)O	137 to 139 °C
CC(C)(C)OC(=O)N1CCOCC1C(=N)NO (stereo not drawn)	154 to 156 °C
CC(NC(=O)CCl)c1ccc(F)cc1 (stereo not drawn)	71 to 73 °C
NCCS(=O)(=O)N1CCSCC1	59 to 61 °C
O=[N+]([O-])c1ccccc1CSc1ccc(C(F)(F)F)cn1	64 to 66 °C
CC(C)c1cc(C(=O)O)c2ccccc2n1	141 to 143 °C
CC(C)(O)c1ccc2[nH]ccc2c1	110 to 112 °C
CNS(=O)(=O)c1cccc(C(C)=O)c1	96 to 98 °C
Cc1ccc(C(=O)O)cc1OCc1csc(Br)c1	158 to 160 °C
Nc1cc(-n2nnnc2C2CC2)ccc1F	112 to 114 °C
OCc1cnc(-c2ccccc2)s1	72 to 74 °C
CC(C)N1C(=O)CC(C(=O)O)C1c1ccc(Cl)c(F)c1 (stereo not drawn)	163 to 165 °C
O=C(O)c1ccc(O)c(S(=O)(=O)Cl)c1	189 to 191 °C
Cc1nc2n(n1)CC(N)CC2 (stereo not drawn)	60 to 62 °C
CN(C1CCCCC1)S(=O)(=O)c1ccc(N)cc1	142 to 144 °C
Cc1ccc(N2C(=O)CCC(C(=O)O)C2c2cccs2)cc1 (stereo not drawn)	249 to 251 °C
CS(=O)(=O)Nc1ccc(-c2csc(N)n2)cc1	196 to 198 °C
CCn1cnnc1S	98 to 100 °C
Nc1ccc(I)cc1Br	83 to 85 °C
CCN(CC)S(=O)(=O)c1ccc(NN)nc1	134 to 136 °C
COCCCNC(=O)CC#N	63 to 65 °C
NNC(=O)c1cc(N)cc([N+](=O)[O-])c1	227 to 229 °C
NC(=S)NC1CC1	138 to 140 °C
COc1ccc(NC(=O)c2c(N)sc3c2CCCC3)cc1	158 to 160 °C
O=C(Nc1cccc(CO)c1)c1ccccc1	114 to 116 °C
COc1ccc2ocnc2c1	75 to 77 °C
CCCCOc1cc(C=O)ccc1OC	39 to 41 °C
CCC1CCc2[nH]c(=O)sc2C1 (stereo not drawn)	144 to 146 °C

* * *

melting point overview

compound	melting point
Cc1[nH]c(C(=O)O)c(C)c1C(=O)O	244 to 246 °C
Cc1cnnc(N)n1	174 to 176 °C
Cc1ccc(C)c(-n2c(=O)c(N)c(C)n2C)c1	19 to 20 °C
ClCc1nc(-c2cccs2)n[nH]1	159 to 161 °C
COC(=O)c1cccc(OC)c1O	65 to 68 °C
Cc1ccc(C)c2sc(N)nc12	151 to 153 °C
OC1CCN(c2cncc(Cl)n2)C1 (centres undefined)	80 to 82 °C
N#Cc1c[nH]c(C(=O)C(Cl)(Cl)Cl)c1	134 to 136 °C
O=C(Nc1ccccn1)c1ccc(Br)cc1	134 to 136 °C
NS(=O)(=O)CCCN1C(=O)c2ccccc2C1=O	173 to 175 °C
NC(=O)C(N)c1ccc(Br)cc1 (centres undefined)	119 to 121 °C
Sc1nc2ccccc2n1C1CCCCC1	178 to 182 °C
CC(C)n1ncc(C(=O)O)c1C(F)(F)F	125 to 127 °C
Cc1ccc(S(=O)(=O)OC2CCCC2c2ccccc2)cc1 (centres undefined)	65 to 67 °C
O=C(Nc1ccc(Br)cn1)C1CCCNC1 (centres undefined)	169 to 171 °C
Cc1ccc(I)c(C(=O)O)c1	119 to 121 °C
O=C(O)c1ccc(-c2cccc(Cl)c2)s1	222 to 224 °C
O=S(=O)(Cl)c1cnn(-c2ccccc2F)c1	81 to 83 °C
O=C(O)CCNC(=O)C1CCC1	105 to 107 °C
O=C(O)c1ccc(-c2cccc3ccccc23)s1	249 to 251 °C
N#CCc1ccc2ccccc2n1	45 to 47 °C
CC(C)(C)c1n[nH]c(O)c1CCC#N	218 to 220 °C
CCn1c(CCC(=O)O)nc2cc(S(=O)(=O)N(C)C)ccc21	186 to 188 °C
CS(=O)(=O)N1CCC(CN)CC1	63 to 65 °C
COc1cc(OC)cc(C(=O)c2c(N)sc3c2CCC(C)C3)c1 (centres undefined)	162 to 164 °C
COc1ccc(Nc2nc(C(=O)O)cs2)cc1	239 to 241 °C
CC1(c2ccccn2)NC(=O)NC1=O (centres undefined)	170 to 172 °C
CC(C)COc1ncccc1C(=O)O	84 to 86 °C
O=c1[nH]c2ccc(NCc3cccc(Cl)c3)cc2[nH]1	217 to 219 °C
CCc1cc(O)nc(CCl)n1	125 to 127 °C
CN(CC(=O)O)c1cnccn1	170 to 172 °C
N#CCc1cccc(C#N)c1	78 to 80 °C
COc1cc(C(=O)O)ccc1OCCC(C)C	92 to 94 °C
O=C(O)CCC(=O)c1ccc(Cl)s1	122 to 124 °C
O=[N+]([O-])c1ccc(-c2ncc(CO)o2)cc1	154 to 156 °C
CC(O)(c1ccc([N+](=O)[O-])cc1)C(F)(F)F (centres undefined)	86 to 88 °C
Cc1cnn(CC(=O)O)c1	172 to 174 °C
CCN(CC)CCn1c(N)nc2ccccc21	129 to 131 °C
Fc1ccc(-n2c(S)nnc2-c2ccncc2)cc1	165 to 175 °C
O=C(O)c1ccc(CSc2ccc(Cl)cc2)cc1	182 to 184 °C
CCc1ccc(-c2csc(NC(=O)C(C)Cl)n2)cc1 (centres undefined)	108 to 110 °C
O=C(O)c1ccc(OC2CCCC2)nc1	165 to 167 °C
CN1CCN(C(N)=S)CC1	179 to 181 °C
Cc1cc(S(=O)(=O)Nc2ccccc2C(=O)O)ccc1F	65 to 68 °C

* * *

melting point overview

compound	melting point
CC(C)c1ccc(CCNC(=O)CCl)cc1	54 to 56 °C
NNC(=O)C1CCN(c2ncccn2)CC1	237 to 239 °C
Cc1cc(O)nc(C2CC2)n1	190 to 192 °C
O=C(O)CCC1NC(=O)NC1=O (configuration not stated)	169 to 171 °C
Clc1nccc(N2CCCC2)n1	121 to 123 °C
Cc1ccc(NS(=O)(=O)c2cc(N)ccc2Cl)c(C)c1	57 to 59 °C
CCOc1cc(C(=O)O)cc(Cl)c1O	204 to 206 °C
Nc1cccc2c1C(=O)N(C1CC1)C2=O	159 to 161 °C
CC(C)C(NC(=O)c1ccc([N+](=O)[O-])cc1Cl)C(=O)O (configuration not stated)	145 to 147 °C
Cc1oc(-n2cccc2)c(C#N)c1C(=O)O	208 to 210 °C
Nc1ccc(NC(=O)c2ccc(F)cc2)cc1C(F)(F)F	120 to 122 °C
Cc1nc2c(c(C)nn2C)c(C)c1CCC(=O)O	211 to 213 °C

Every entry's value here was drawn from a melting point compilation (Tetko et al.).
